System: Klebsiella pneumoniae
Assay: Antimicrobial activity against Klebsiella pneumoniae ATCC BAA-2473 by broth microdilution method
Type: functional
observation-type: MIC

INSERT INTO measurements (compound, observed_result) VALUES
  ('C[C@@H](O)[C@H]1C(=O)N2C(C(=O)O)=C(SCCNC=N)C[C@H]12 [IMIPENEM ANHYDROUS]', '> 64 µg/mL');

Task: Which measured MIC value corresponds to CO/N=C(\C(=O)N[C@@H]1C(=O)N2C(C(=O)O)=C(CSc3nc(=O)c(O)nn3C)CS[C@H]12)c1csc(N)n1 [CEFTRIAXONE] ?
Result: > 64 µg/mL

Task: Which measured MIC value corresponds to O=C(O)c1cn(C2CC2)c2cc(N3CCNCC3)c(F)cc2c1=O [CIPROFLOXACIN] ?
Result: > 64 µg/mL

---

Entries and their MIC
Test system: Klebsiella pneumoniae
Test: Antimicrobial activity against Klebsiella pneumoniae NCTC 13443 by broth microdilution method
Type: functional

INSERT INTO measurements (molecule, observation_type, observed_result) VALUES
  ('CO/N=C(\C(=O)N[C@@H]1C(=O)N2C(C(=O)O)=C(CSc3nc(=O)c(O)nn3C)CS[C@H]12)c1csc(N)n1', 'MIC', '> 64 µg/mL'),
  ('O=C(O)c1cn(C2CC2)c2cc(N3CCNCC3)c(F)cc2c1=O', 'MIC', '> 64 µg/mL');

Task: Which measured MIC value corresponds to C[C@@H](O)[C@H]1C(=O)N2C(C(=O)O)=C(SCCNC=N)C[C@H]12 [IMIPENEM ANHYDROUS] ?
Result: > 64 µg/mL

---

Test system: Escherichia coli
Experiment: Antimicrobial activity against Escherichia coli ATCC BAA-2469 by broth microdilution method
Type: functional
observation-type: MIC

The following molecules have reported results that may help.
INSERT INTO assay_data (molecule, observed_result) VALUES
  ('C[C@@H](O)[C@H]1C(=O)N2C(C(=O)O)=C(SCCNC=N)C[C@H]12 [IMIPENEM ANHYDROUS]', '> 64 µg/mL'),
  ('CO/N=C(\C(=O)N[C@@H]1C(=O)N2C(C(=O)O)=C(CSc3nc(=O)c(O)nn3C)CS[C@H]12)c1csc(N)n1 [CEFTRIAXONE]', '> 64 µg/mL');

Here's the next entry for you.
Task: Give the reported MIC for O=C(O)c1cn(C2CC2)c2cc(N3CCNCC3)c(F)cc2c1=O [CIPROFLOXACIN] (system: Escherichia coli).
Result: > 64 µg/mL

---

Tested on: Escherichia coli
Assay: Antimicrobial activity against Escherichia coli ATCC BAA-2452 by broth microdilution method
Format: functional
observation-type: MIC

The following molecules have reported results that may help.
INSERT INTO assay_data (molecule, observation_type, observed_result) VALUES
  ('O=C(O)c1cn(C2CC2)c2cc(N3CCNCC3)c(F)cc2c1=O [CIPROFLOXACIN]', 'MIC', '< 0.125 µg/mL'),
  ('CO/N=C(\C(=O)N[C@@H]1C(=O)N2C(C(=O)O)=C(CSc3nc(=O)c(O)nn3C)CS[C@H]12)c1csc(N)n1 [CEFTRIAXONE]', 'MIC', '> 64 µg/mL');

Task: Which measured MIC value corresponds to C[C@@H](O)[C@H]1C(=O)N2C(C(=O)O)=C(SCCNC=N)C[C@H]12 [IMIPENEM ANHYDROUS] ?
Result: > 64 µg/mL

Where do these numbers come from? They come from ChEMBL document CHEMBL4145683.
